Species: Rattus norvegicus
Assay: Negative logarithm of the molar concentration required to relax rat aorta precontracted with 30 mM KCl by 50% of intrinsic activity
Format: functional
Settings: Rattus norvegicus, Aorta
Measured EC50 determines class: low band: < 0.1 nM; middle band: ≥ 0.1 nM and < 40 nM; high band: ≥ 40 nM

molecule=C/N=C(/S)C1=CC2(CCC2)Oc2ccc([N+](=O)[O-])cc21 group_label="low band"
molecule="C/N=C(/S)C1=CC(C(C)(C)C)Oc2ccc([N+](=O)[O-])cc21 (configuration not stated)" group_label="middle band"
molecule=CCC1(CC)C=C(/C(S)=N\C)c2cc([N+](=O)[O-])ccc2O1 group_label="middle band"
molecule=C/N=C(/S)C1=CC2(CCCC2)Oc2ccc([N+](=O)[O-])cc21 group_label="low band"
molecule=C/N=C(/S)C1=CC2(CCCCC2)Oc2ccc([N+](=O)[O-])cc21 group_label="middle band"
molecule="CCC1(C)C=C(/C(S)=N\\C)c2cc([N+](=O)[O-])ccc2O1 (configuration not stated)" group_label="middle band"
molecule=C/N=C(/S)C1=CC2(CCCCCC2)Oc2ccc([N+](=O)[O-])cc21 group_label="high band"
molecule="CCC1C=C(/C(S)=N\\C)c2cc([N+](=O)[O-])ccc2O1 (configuration not stated)" group_label="high band"
molecule=C/N=C(/S)C1=C(O)C(C)(C)Oc2ccc([N+](=O)[O-])cc21 group_label="high band"
molecule="CCCC1(C)C=C(/C(S)=N\\C)c2cc([N+](=O)[O-])ccc2O1 (configuration not stated)" group_label="low band"
molecule="C/N=C(/S)C1=CC2(Oc3ccc([N+](=O)[O-])cc31)C1CC3CC(C1)CC2C3 (configuration not stated)" group_label="high band"
